test details: Single daily dose PK in human subjects (summary statements)
Format: in vivo
experimental context: plasma, oral, 10 mg, single 10 mg daily dose, read-out: mean AUC(0-t)
measured property: AUC(0-t)

Report AUC(0-t) for `Cc1ncc(OC[C@@]2(c3cccc(F)c3)C[C@H]2C(=O)Nc2ccc(F)cn2)c(C)n1` 0.28 to 0.51 µg·h/mL

###

test details: Multiple ascending dose study (002 Study): plasma PK
Type: in vivo, human
experimental context: human, plasma, oral, doses ranging from 2.5 to 25 mg; read-out: effective half-life based on accumulation (converted)
measured property: half-life

Fill in reported half-life for this entry: Cc1ncc(OC[C@@]2(c3cccc(F)c3)C[C@H]2C(=O)Nc2ccc(F)cn2)c(C)n1 [Compound A] 16.9 to 24.7 h

Value source: patent US11026944B2
